SYSTEM TESTED: Mannose-6-phosphate isomerase (Homo sapiens) (UniProt P34949)
Sequence (P34949 whole entry, looked up): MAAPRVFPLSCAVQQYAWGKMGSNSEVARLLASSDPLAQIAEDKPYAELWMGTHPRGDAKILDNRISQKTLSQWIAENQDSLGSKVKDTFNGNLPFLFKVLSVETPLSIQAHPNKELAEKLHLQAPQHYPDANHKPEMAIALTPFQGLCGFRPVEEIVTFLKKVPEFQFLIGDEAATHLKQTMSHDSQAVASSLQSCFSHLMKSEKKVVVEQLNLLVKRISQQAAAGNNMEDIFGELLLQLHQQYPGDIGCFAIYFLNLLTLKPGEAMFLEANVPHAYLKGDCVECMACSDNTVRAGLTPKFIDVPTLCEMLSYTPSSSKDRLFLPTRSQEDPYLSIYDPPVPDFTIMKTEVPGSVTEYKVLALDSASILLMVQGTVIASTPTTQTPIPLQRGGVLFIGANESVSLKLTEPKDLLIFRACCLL
METHOD: MPI activation at elevated mannose 6-phosphate – biochemical, fluorescence intensity, near-saturating mannose 6-phosphate, primary screen (AID 1216)
REPORTED CONDITIONS: coupled PMI enzyme assay, resazurin fluorescence, 20 min; at 20 µM; 1 = untreated enzyme, 0 = substrate-free blank
Hit rate of the full screen: of about 190,000 compounds, about 660 (0.35%) were called active.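 The calls were made as follows: active = activation factor of 2 or more at 20 µM; inactive = the rest.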 The sample as a whole holds a higher share of actives than the screen did.
Parameter call: string, one of 1 (active), 0 (inactive)

Observe how each entry below is paired with its result.
# COMPOUND, LABEL VALUE
rows = [
    ("CC(CC(=O)Nc1ccccc1)n1ccnc1 (stereo not drawn)", 0),
    ("OCC1(Cc2ccccc2C(F)(F)F)CCN(Cc2cccc3cnccc23)CC1", 0),
    ("O=C(/C=C/NCc1ccc(F)cc1)c1ccccc1", 0),
    ("CS/C(=C\\[N+](=O)[O-])Nc1ccc(C)cc1", 0),
    ("COc1ccc(NC(=S)SC)cc1OC", 0),
]

# input Please let me know the test result on file for CSc1ncccc1C(=O)OCc1ccc(Br)cc1 .
# output 0

# input Please let me know the test result on file for C=C1c2cc(CC)ccc2NC(=O)N1c1ccc(C)cc1 .
# output 1

# input Please let me know the test result on file for COc1ccc(Cc2nnc(SC)[nH]c2=O)cc1 .
# output 1

# input Please let me know the test result on file for Cc1cc(C)c(OCCN2CC(C)OC(C)C2)c(Br)c1 (stereo not drawn) .
# output 0

# input Please let me know the test result on file for COc1ccc(C(=O)/C=C/c2ccc(OC3CSC3)cc2)cc1 .
# output 0

# input Please let me know the test result on file for Cc1ccc(N2C(=O)C(Cc3ccccc3)NC2=S)cc1 (stereo not drawn) .
# output 0

# input Please let me know the test result on file for Cc1ccc(CNC(=O)c2cccnc2Cl)cc1 .
# output 0

# input Please let me know the test result on file for COc1ccccc1N1N=C(c2cccs2)CC1c1ccccc1 (stereo not drawn) .
# output 0

# input Please let me know the test result on file for C/C(N)=C(/C#N)C(=O)COC(=O)C1CCN(C(=O)c2ccc(Cl)cc2)CC1 .
# output 0

# input Please let me know the test result on file for O=C(CNCc1ccc(Cl)cc1)Nc1cccc(C(=O)O)c1 .
# output 0

# input Please let me know the test result on file for OCC(O)CN(c1ccccc1)c1ccccc1 (stereo not drawn) .
# output 0

# input Please let me know the test result on file for O=C1C2C3C=CC(C4CC34)C2C(=O)N1c1nccs1 (stereo not drawn) .
# output 0

# input Please let me know the test result on file for CSc1nc(O)c(Cc2ccccc2)c(=O)[nH]1 .
# output 0

# input Please let me know the test result on file for COc1ccc(/C=C/C(=O)c2cc(Br)ccc(=O)c2O)cc1 .
# output 1

# input Please let me know the test result on file for COc1ccc(C2CC(c3cccs3)=NN2c2nc(C)c(C(C)=O)s2)cc1OC (stereo not drawn) .
# output 1

# input Please let me know the test result on file for COc1ccc(N2CCN(C(=O)CCSCc3ccccc3F)CC2)cc1 .
# output 0

# input Please let me know the test result on file for O=C(COc1ccc(-c2ccccc2)cc1)NN=C1CCCC1 .
# output 0
